Ref: PubChem BioAssay (NCATS)

system: HB3; assay: qHTS profiling for inhibitors of Plasmodium falciparum proliferation (AID 504749); further: nearly all actives have a fitted effect of over 60% in size; conditions: P. falciparum in erythrocytes, SYBR Green DNA, 72 h; series mostly up to 28.7 µM
Records with an inconclusive call do not appear. Activity calls are given as the source filed them. The call rests on the fitted dose curve; in most records, active means well fitted inhibition curve with a large enough effect; inconclusive means small, poorly fitted or top-dose-only effect; inactive means flat fitted curve, though single readings scatter.
Give your call using only these classes: active, inactive

Worked cases, answers included:
{"columns": ["Compound", "Target Of Assay", "Class Label"],
 "data": [
  ["C=CCc1ccc(O)c(OC)c1", "HB3", "inactive"],
  ["Cc1ccc(O)c2ncccc12", "HB3", "inactive"],
  ["Cc1ccnc(NS(=O)(=O)c2ccc(N)cc2)n1", "HB3", "inactive"],
  ["CCCCCCCCCCCCCCCCCC(=O)OCC(O)CO (stereo not given)", "HB3", "inactive"]
]}

Field: outcome | Entry: CCOc1ccc(NC(=O)CC(C)O)cc1 (stereo not given)
inactive

Hi team, can someone confirm the assay call for NC(CS)C(=O)O (stereo not given) ?
active

GET /call?item= `Cc1c(C(C)C)c(=O)n(-c2ccccc2)n1C` returns the recorded outcome of this test.
inactive

Given `CCCCOc1cc(C(=O)NCCN(CC)CC)c2ccccc2n1` , state the outcome it received in this test.
inactive

Please let me know the test result on file for `CC(O)(P(=O)(O)O)P(=O)(O)O` .
inactive

Could you check what this test reported for `CC(=O)OCC(=O)NCCCOc1cccc(CN2CCCCC2)c1` ?
inactive

Returns: the outcome recorded for `O=C(O)CNC(=O)c1ccccc1` in this assay.
inactive

Could you check what this test reported for `O=C1OC(c2ccc(O)cc2)(c2ccc(O)cc2)c2ccccc21` ?
inactive

Name the outcome recorded for `CCCCCCCCCCCCCCCC[N+](C)(C)CCN(Cc1ccc(OC)cc1)c1ncccn1` in the assay.
inactive

Returns: the outcome recorded for `CCOC(=O)n1ccn(C)c1=S` in this assay.
inactive

Please share the test call associated with CCCCC(CC)CN=C(N)NC(N)=NCCCCCCN=C(N)NC(N)=NCC(CC)CCCC (stereo not given) .
active

----------
system: MKL-2; assay: qHTS assay to identify novel small-molecules to repurpose for Merkel cell carcinoma treatment (AID 1296009); conditions: MCC and control cell lines, CellTiter-Glo viability, 72 h; series mostly up to 46 µM; further: nearly all actives have a fitted effect of over 60% in size; further: potency means the concentration at half of the fitted maximal effect
Records with an inconclusive call do not appear. Active and inactive are the calls of the source. The call rests on the fitted dose curve; in most records, active means well fitted inhibition curve with a large enough effect; inconclusive means small, poorly fitted or top-dose-only effect; inactive means flat fitted curve, though single readings scatter. Numbered stars: 1 amine (or outer) side, 2 acyl side, 3 side chain; on linkers, the order of the positions; unused ones are H or OH. Bridge positions count the residues as written; N and C are the ends. Square brackets hold non-standard residues; d marks the D form. Peptide text beside a SMILES is read from it. I, II: the chains in the order shown. Actinocin(9to1) = Cc1c2oc3c(C)ccc(C(=O)[*:1])c3nc-2c(C(=O)[*:2])c(N)c1=O; NMeV = CN[C@H](C(=O)O)C(C)C; Sar = CNCC(=O)O
Quantity Kind: Potency

Examples with answers:
{"columns": ["Compound", "Result"],
 "data": [
  ["CC1(C)O[C@@H]2[C@@H](CO[C@@]3(COS(N)(=O)=O)OC(C)(C)O[C@@H]23)O1", "inactive"],
  ["CN(C)C(=S)SC(=S)N(C)C", "3350 nM (active)"],
  ["CCC(=O)c1c(O)cc(O)cc1O", "inactive"],
  ["Cc1c2oc3c(C)ccc(C(=O)N[C@@H]4C(=O)N[C@H](C(C)C)C(=O)N5CCC[C@H]5C(=O)N(C)CC(=O)N(C)[C@@H](C(C)C)C(=O)O[C@@H]4C)c3nc-2c(C(=O)N[C@@H]2C(=O)N[C@H](C(C)C)C(=O)N3CCC[C@H]3C(=O)N(C)CC(=O)N(C)[C@@H](C(C)C)C(=O)O[C@@H]2C)c(N)c1=O (I: T[dV]P[Sar][NMeV] / II: T[dV]P[Sar][NMeV]; ester I:1-I:C, II:1-II:C; linker I:N-II:N via Actinocin(9to1))", "3.8 nM (active)"],
  ["CC(C)(C)CC(C)(C)c1ccc(OCCOCC[N+](C)(C)Cc2ccccc2)cc1", "944 nM (active)"],
  ["Cc1nc2n(c(=O)c1CCN1CCC(c3noc4cc(F)ccc34)CC1)CCC[C@H]2O", "inactive"],
  ["CN(C)CCOc1ccccc1Cc1ccccc1", "inactive"],
  ["CCOC(=O)n1ccn(C)c1=S", "inactive"],
  ["CCOc1ccc(NC(=O)CC(C)O)cc1 (stereo not given)", "inactive"]
]}

The record that follows has no Potency shown yet.
Which value of Potency has been reported for `CN(C/C=C/c1ccccc1)Cc1cccc2ccccc12` in the records?
inactive
